Recorded Judgment score for biological activity values for a group of compounds are listed next.
# Test system: short-necked clam (Ruditapes philippinarum)
# Assay Text: Biological activity of short-necked clam (aqueduct extension score) in aqueous mineral solutions
# Assay type: in vivo
# Measurement Conditions: mineral 1.0 w/v %; saccharide 1 w/v %; total of 18 clams, 16 h
Answer as a number with no unit attached.

Record for O=C[C@H](O)[C@@H](O)[C@H](O)[C@H](O)CO [D-Glucose, D-glucose] under target or system short-necked clam (Ruditapes philippinarum): Judgment score for biological activity reported as 12

Measured Judgment score for biological activity (short-necked clam (Ruditapes philippinarum)), entry OC[C@H]1O[C@H](O[C@H]2[C@H](O)[C@@H](O)[C@@H](O[C@H]3[C@H](O)[C@@H](O)[C@@H](O[C@H]4[C@H](O)[C@@H](O)C(O)O[C@@H]4CO)O[C@@H]3CO)O[C@@H]2CO)[C@H](O)[C@@H](O)[C@@H]1O (stereo partly shown) [Maltotetraose, maltotetraose] : 12

Readout Judgment score for biological activity for OC[C@H]1O[C@@](CO)(O[C@H]2O[C@H](CO)[C@@H](O)[C@H](O)[C@H]2O)[C@@H](O)[C@@H]1O [Sucrose, sucrose] , test system short-necked clam (Ruditapes philippinarum), was 14

# Judgment score for biological activity measured on short-necked clam (Ruditapes philippinarum) for item OC[C@H]1O[C@H](O[C@H]2O[C@H](CO)[C@@H](O)[C@H](O)[C@H]2O)[C@H](O)[C@@H](O)[C@@H]1O [α,α-Trehalose, α,α-trehalose] = 38

* * *

# Tested on: colbicula (Corbicula leana)
# Assay Text: Biological activity of corbicula (aqueduct extension score) in aqueous mineral solutions
# Type: in vivo
# Measurement Conditions: mineral concentration 2.0; saccharide 1 w/v %; total of 18 shellfishes, 16 h
# Description: Influence of various saccharides was judged by observing the degree of extending aqueduct of the shellfish; 3 points: its aqueduct is well extended; 2 points: its aqueduct is slightly extended; 1 point: its aqueduct is not extended but its shells are opened; 0 point: its shells are closed. The effect on biological activity was judged by the total point of 18 shellfishes. […]
Assay Metric: Judgment score of biological activity
Number only, please.

Worked examples, 3 molecules total:
Molecule	Judgment score of biological activity
OC[C@H]1O[C@H](O[C@H]2O[C@H](CO)[C@@H](O)[C@H](O)[C@H]2O)[C@H](O)[C@@H](O)[C@@H]1O	42
OC[C@H]1O[C@@](CO)(O[C@H]2O[C@H](CO)[C@@H](O)[C@H](O)[C@H]2O)[C@@H](O)[C@@H]1O	8
OC[C@H]1O[C@@H]2OC[C@H]3O[C@H](O[C@@H]4[C@@H](O)[C@@H](OC[C@H]5O[C@H](O[C@H]([C@H]2O)[C@@H]1O)[C@H](O)[C@@H](O)[C@@H]5O)O[C@H](CO)[C@H]4O)[C@H](O)[C@@H](O)[C@@H]3O [Cyclic tetrasaccharide, cyclic tetrasaccharide]	13

Let me check: O=C[C@H](O)[C@@H](O)[C@H](O)[C@H](O)CO , system colbicula (Corbicula leana), measured Judgment score of biological activity is 15

* * *

# Test system: short-necked clam (Ruditapes philippinarum)
# Assay Text: Biological activity of short-necked clam (aqueduct extension score) in aqueous mineral solutions
# Format: in vivo
# Measurement Conditions: mineral 1.0 w/v %; saccharide 1 w/v %; total of 18 clams, 16 h
Listing of recorded Judgment score for biological activity by entry.
Lab note: jot down the number only; don't add units.

Compound	Tested System	Judgment score for biological activity
OC[C@H]1O[C@H](O[C@H]2O[C@H](CO)[C@@H](O[C@H]3O[C@H](CO)[C@@H](O[C@H]4O[C@H](CO)[C@@H](O)[C@H](O)[C@H]4O)[C@H](O)[C@H]3O)[C@H](O)[C@H]2O)[C@H](O)[C@@H](O)[C@@H]1O [α-Maltosyl α,α-trehalose, α-maltosyl α,α-trehalose]	short-necked clam (Ruditapes philippinarum)	36

Entry under test: OC[C@H]1O[C@H](O[C@H]2[C@H](O)[C@@H](O)C(O)O[C@@H]2CO)[C@H](O)[C@@H](O)[C@@H]1O (mixture of isomers) [Maltose, maltose] . Its Judgment score for biological activity was 14

The recorded Judgment score for biological activity for OC[C@@H](O)[C@@H](O[C@H]1O[C@H](CO)[C@@H](O)[C@H](O)[C@H]1O)[C@H](O)[C@@H](O)CO [Maltitol, maltitol] is 15

Documented Judgment score for biological activity of OC[C@H]1O[C@@H]2OC[C@H]3O[C@H](O[C@@H]4[C@@H](O)[C@@H](OC[C@H]5O[C@H](O[C@H]([C@H]2O)[C@@H]1O)[C@H](O)[C@@H](O)[C@@H]5O)O[C@H](CO)[C@H]4O)[C@H](O)[C@@H](O)[C@@H]3O [Cyclic tetrasaccharide, cyclic tetrasaccharide] : 15
